Origin of the recorded values: patent US20150328329A1

- Measured on: native CD81 on Raji cells (Homo sapiens)
- Construct: endogenous in cells; host or cells: Raji (human B cell line)
- Sequence (P60033 whole entry): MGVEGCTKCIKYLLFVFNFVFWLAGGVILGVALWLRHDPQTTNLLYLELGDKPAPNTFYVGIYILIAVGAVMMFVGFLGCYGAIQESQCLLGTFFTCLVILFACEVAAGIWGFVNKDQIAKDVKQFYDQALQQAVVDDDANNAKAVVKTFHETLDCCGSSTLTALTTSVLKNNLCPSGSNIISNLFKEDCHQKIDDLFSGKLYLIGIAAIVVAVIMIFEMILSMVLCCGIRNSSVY
- Assay text: Competition assay: inhibition of FITC-labeled JS-81 anti-CD81 antibody binding to native CD81 on live Raji cells (flow cytometry)
- Type: cell-based
- Measurement setup: 400 μM ligand
Quantity: Inhibition of JS-81 Binding (%)
Give bare numbers, in %.

• O=C(O)c1cc2cc(OCc3ccccc3)ccc2[nH]1 = 14
• O=C(O)/C(=C/c1ccccc1)c1ccccc1 = 26
• N=C(N)N/N=C/c1c(Cl)cccc1Cl = 15
• COc1cc(-c2ccc(Nc3ccccc3C(=O)O)c(OC)c2)ccc1Nc1ccccc1C(=O)O = 24
• NS(=O)(=O)c1ccc(/N=N/c2c(O)c(C(=O)O)cc3ccccc23)cc1 = 26
• O=C(Cn1ccc(=O)[nH]c1=O)Nc1ccc(C(=O)O)c(O)c1 = 16
• O=C(O)c1cc(O)ccc1/N=N/c1ccccc1 = 19
• O=C(O)Cn1ccc2ccccc21 = 31

Parameter requested: Inhibition of JS-81 Binding (%). Apply to each item below.
1. O=C(O)c1ccc(N2CCCCC2)cc1O
2. O=C(O)/C=C\C(=O)Nc1cccc2cccnc12
3. CC(C)(C)c1ccc(NS(=O)(=O)c2ccc(N)cc2)cc1
4. CCC(C)(C)c1ccc(Oc2cccc(C(=O)O)c2)cc1
5. CC(C)=CCC1=C(OCC(=O)O)C(=O)c2ccccc2C1=O

[17, 12, 11, 19, 21]

Parameter requested: Inhibition of JS-81 Binding (%). Apply to each item below.
1. Cc1cc(C)c(N)c(C(=O)O)c1
2. Cc1ccc(-c2cc(C(=O)O)c3ccccc3n2)c(C)c1

1. 24
2. 19

----------
- Measured on: recombinant CD81-LEL (Homo sapiens, UniProt P60033)
- Construct: the large extracellular loop of CD81 (CD81-LEL); GST; His; Shoshana Levy Lab, Stanford (gift)
- Sequence (P60033 113-201 limits assumed): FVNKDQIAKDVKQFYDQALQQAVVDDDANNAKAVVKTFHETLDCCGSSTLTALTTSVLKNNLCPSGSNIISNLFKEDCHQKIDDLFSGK
- Assay text: SPR (Biacore T100) binding of additional ligands to immobilized CD81-LEL (Example 6)
- Measurement setup: Table E, ligand 200 uM in PBS-1% DMSO
Quantity: Binding (RU)
Answers are plain numbers, in RU.

The cases that follow already have their Binding (RU) on record.
* O=C(O)CCc1cccnc1 | 9.2
* CC1CCCC(CC(=O)O)(CC(=O)O)C1 (centres unmarked) | 4.6
* N=C(N)NC(=S)Nc1ccc(Cl)cc1 | 12.6
* Cn1ncc2c(Nc3ccc(Br)cc3)nc(Nc3ccc(Br)cc3)nc21 | 9.6

Look up Binding (RU) for this molecule: `O=C(O)C(Cc1ccccc1-c1ccccc1)C(=O)O`
7.2

----------
- Measured on: recombinant CD81-LEL (Homo sapiens, UniProt P60033)
- Construct: the large extracellular loop of CD81 (CD81-LEL); GST; His; Shoshana Levy Lab, Stanford (gift)
- Assay text: SPR (Biacore T100) binding of additional ligands to immobilized CD81-LEL (Example 6)
- Measurement setup: Table E, ligand 200 uM in PBS-1% DMSO
I'd appreciate it if you could supply Binding (RU) values for the items below.
Answers are plain numbers, in RU.

* O=C(O)c1ccccc1NCc1ccco1 [Ligand 331931] | 5.9
* NS(=O)(=O)c1ccc(/N=N/c2c(O)c(C(=O)O)cc3ccccc23)cc1 [Ligand 134137] | 10

Parameter requested: Binding (RU). Apply to each item below.
1. CC(OC(=O)Nc1cccc(Cl)c1)C(=O)O (stereo not shown) [Ligand 73170]
2. O=C(O)c1ccc(N2CCCCC2)cc1O [Ligand 23895]

4.3
10
